Data credit: PubChem BioAssay AID652245

# targetOrTestSystem: Galanin receptor type 3 (Homo sapiens) (UniProt O60755)
# Sequence (O60755 1-299 limits assumed): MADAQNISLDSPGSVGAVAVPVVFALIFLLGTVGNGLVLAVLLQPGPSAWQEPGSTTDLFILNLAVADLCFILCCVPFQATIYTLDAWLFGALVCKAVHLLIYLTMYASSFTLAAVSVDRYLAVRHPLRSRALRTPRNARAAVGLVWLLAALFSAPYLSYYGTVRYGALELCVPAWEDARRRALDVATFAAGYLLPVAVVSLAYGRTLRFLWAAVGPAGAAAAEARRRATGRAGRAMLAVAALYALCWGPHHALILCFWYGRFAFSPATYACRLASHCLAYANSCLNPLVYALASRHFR
# assay: blockers of human galanin receptor 3 – cell-based, fluorescence, triplicate, confirmation (AID 652245)
# testParameters: HEK293 GalR3 CNG cAMP biosensor, membrane potential fluorescence; at 3 µM; stronger effect = higher value; challenged with forskolin and galanin at EC90; galR3 fused to GalR1 carboxy tail
Among all 1,600 compounds or so, about 920 (58%) were called active. The set was probably picked from earlier hits. A selection follows.
Quick rule for you: inhibition at 10% or higher means TRUE, lower means FALSE.

COc1ccc(C2CC(=O)Nc3sc(=N)c4c(N)c(C#N)c(N)nc4c32)cc1OC (stereo not drawn)	TRUE

Qu. Could you tell me if the measured inhibition of Cc1ccc(F)cc1NC(=O)Cc1nn(C)c(=O)c2ccccc12 reaches 10% or more?
Ans. FALSE

Qu. Could you tell me if the measured inhibition of CCOC(=O)c1cc2n(c1C)-c1ccccc1C2=O reaches 10% or more?
Ans. FALSE

Qu. Could you tell me if the measured inhibition of NC(=O)c1ccc(NC(=O)COC(=O)C(Cc2ccccc2)NC(=O)c2ccccc2)cc1 (stereo not drawn) reaches 10% or more?
Ans. TRUE

Qu. Could you tell me if the measured inhibition of C#Cc1ccc(NC(=O)C2(C)CCN2C(=O)Cc2ccc(-c3ccccc3)cc2)cc1 (stereo not drawn) reaches 10% or more?
Ans. TRUE

Qu. Could you tell me if the measured inhibition of Cc1c(Cl)cccc1NC(=O)CSc1ccc(-c2cccnc2)nn1 reaches 10% or more?
Ans. FALSE

====

# targetOrTestSystem: Galanin receptor type 3 (Homo sapiens) (UniProt O60755)
# assay: blockers of human galanin receptor 3 – cell-based, fluorescence, triplicate, confirmation (AID 652245)
# testParameters: HEK293 GalR3 CNG cAMP biosensor, membrane potential fluorescence; at 3 µM; challenged with forskolin and galanin at EC90; galR3 fused to GalR1 carboxy tail
Out of some 1,600 compounds screened, about 920 (58%) were called active.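 How the source made its calls: active means inhibition above the primary screen's cutoff, the mean inhibition of all screened compounds plus 3 SD (cut at about 13% in these data); inactive means the rest.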 So high a share suggests a set chosen from earlier hits. The list is a sample of the results.
Please reply with one of these outcomes: active, inactive

CCn1c(-c2cc(OC)ccc2OC)csc1=Nc1c(C)n(C)n(-c2ccccc2)c1=O	inactive
CC(=O)OC(C)C[N+](C)(C)C (centres undefined)	active
CC(CCc1ccccc1)NCC(O)c1cccc([N+](=O)[O-])c1 (centres undefined)	active
CCCn1nc(C(=O)NNC(=O)CSCC(=O)Nc2cc(C)on2)c2ccccc2c1=O	inactive
CC1(C)CC(N2CCN(C(c3ccccc3)c3ccccc3)CC2)=CC(=[N+]2CCCCC2)C1	active

Would you kindly look at the next entry?
Qu. Returns: the outcome recorded for COC(=O)c1cccc([N+](=O)[O-])c1CS(=O)(=O)c1ccc(C)cc1 in this assay.
Ans. inactive

====

# targetOrTestSystem: Galanin receptor type 3 (Homo sapiens) (UniProt O60755)
# assay: blockers of human galanin receptor 3 – cell-based, fluorescence, triplicate, confirmation (AID 652245)
# testParameters: HEK293 GalR3 CNG cAMP biosensor, membrane potential fluorescence; at 3 µM; stronger effect = higher value; challenged with forskolin and galanin at EC90; galR3 fused to GalR1 carboxy tail
The campaign covered roughly 1,600 compounds. About 920 (58%) were called active. The set was probably picked from earlier hits. A selection follows.
Quick rule for you: inhibition at 50% or higher means Met, lower means Not met.

Known results for compounds:
O=C(/C=C/c1c(F)cccc1Cl)Nc1nn[nH]n1	Not met
CSc1nc(N)c(C#N)c(-c2ccccc2Cl)c1C#N	Met
CCCOc1ccc(Cc2c(Cl)nc(SC)nc2NC)cc1	Met
COc1ccc(CCNc2nc3ccc(C)cc3n3cnnc23)cc1OC	Not met

Qu. Could you tell me if the measured inhibition of COc1ccc(C2Nc3ccccc3C(=O)N2c2ccc(Cl)cc2)cc1Cn1cc([N+](=O)[O-])cn1 (configuration not stated) reaches 50% or more?
Ans. Not met

Qu. Could you tell me if the measured inhibition of O=C(Nc1ccc(CSc2ccccc2)cc1)c1ccc(CN2CCOCC2)cc1 reaches 50% or more?
Ans. Met

Qu. Could you tell me if the measured inhibition of OC[C@@H]1CN(Cc2ccc(-c3ccccc3)cc2)C[C@H](n2cnc3c(NC4CCCC4)ncnc32)O1 reaches 50% or more?
Ans. Met

Qu. Could you tell me if the measured inhibition of Cn1cnc([N+](=O)[O-])c1Nc1ccccc1O reaches 50% or more?
Ans. Not met

Qu. Could you tell me if the measured inhibition of Cc1nc2ccccc2cc1OCc1ccc(F)cc1 reaches 50% or more?
Ans. Met

Qu. Could you tell me if the measured inhibition of O=C(Nc1ccccc1Cl)/C(Cl)=C(\Cl)S(=O)c1ccccc1 (configuration not stated) reaches 50% or more?
Ans. Not met

Qu. Could you tell me if the measured inhibition of c1ccc(Cc2ccc(OCCn3ccnc3)cc2)cc1 reaches 50% or more?
Ans. Not met

Qu. Could you tell me if the measured inhibition of CSc1nccc(NC(=O)c2ccc(C(C)(C)C)cc2)n1 reaches 50% or more?
Ans. Met

Qu. Could you tell me if the measured inhibition of COc1ccc(OC)c(NC(=O)CSc2nc(N)c(-c3ccccc3)c(=O)[nH]2)c1 reaches 50% or more?
Ans. Not met
